Measured target: human SGLT2 (Homo sapiens, UniProt P31639)
Method: Determination of SGLT2 inhibiting activity using human SGLT2 expressing cell ([14C]-α-methyl-D-glucopyranoside uptake)
Conditions used: HEK-SGLT2 cells, 1 mM [14C]-α-methyl-D-glucopyranoside, 37° C., 30 min
Measurement label: IC50
Please answer using a numeric value trailed by its unit.

Consider the worked cases shown below.
# Molecule, Measurement label, Test value
rows = [
    ("COc1ccc(Cc2c(Cl)cc(CO)cc2O[C@@H]2O[C@H](CO)[C@@](C)(O)[C@H](O)[C@H]2O)cc1 [Example 56]", "IC50", "11 nM"),
    ("C[C@@H](O)[C@H]1O[C@@H](Oc2cc(CO)cc(F)c2Cc2ccc(OC3CC3)cc2)[C@H](O)[C@@H](O)[C@@H]1O [Example 63]", "IC50", "34 nM"),
    ("Cc1cc(CO)cc(O[C@@H]2O[C@H]([C@@H](C)O)[C@@H](O)[C@H](O)[C@H]2O)c1Cc1ccc(OC2CC2)cc1 [Example 96]", "IC50", "36 nM"),
    ("CCc1ccc(Cc2c(F)cc(CO)cc2O[C@@H]2O[C@H]([C@@H](C)O)[C@@H](O)[C@H](O)[C@H]2O)cc1 [Example 47]", "IC50", "38 nM"),
    ("CCOc1ccc(Cc2c(F)cc(CO)cc2O[C@@H]2O[C@H]([C@@H](C)O)[C@@H](O)[C@H](O)[C@H]2O)cc1 [Example 46]", "IC50", "16 nM"),
]

Item COc1ccc(Cc2c(F)cc(CO)cc2O[C@@H]2O[C@H]([C@@H](C)O)[C@@H](O)[C@H](O)[C@H]2O)cc1 [Example 84] has what recorded IC50?
6.3 nM

----------
Measured target: human SGLT2 (Homo sapiens, UniProt P31639)
Method: Determination of SGLT2 inhibiting activity using human SGLT2 expressing cell ([14C]-α-methyl-D-glucopyranoside uptake)
Conditions used: HEK-SGLT2 cells, 1 mM [14C]-α-methyl-D-glucopyranoside, 37° C., 30 min
Method: Determination of SGLT2 Inhibiting Activity Using Human SGLT2 Expressing Cell 1) Preparation of Vector Expressing Human SGLT2 cDNA in Animal Cell Amplification was performed by PCR using human SGLT2 cDNA clone (Origene: Clone Number, TC303267; GenBank accession number, NM 003041) as a template. The sense oligonucleotide primer for PCR was 5′-[…]-3′ (Primer 3: SEQ ID NO: 3 in the sequence listing), and the antisense oligonucleotide primer was 5′-[…]-3′ (Primer 4: SEQ ID NO: 4 in the sequence listing). […]
Measurement label: IC50 (µM)
Give a bare numeral; the unit µM is implied.

# Compound, Measured target, Display unit, Test value
data = [
    ("CSc1ccc(Cc2ccc(CO)cc2O[C@@H]2O[C@H]([C@@H](C)O)[C@@H](O)[C@H](O)[C@H]2O)cc1 [Example 66]", "human SGLT2 (Homo sapiens, UniProt P31639)", "µM", 0.023),
]

In the following, a different compound is considered.
Item COc1ccc(Cc2ccc(CO)cc2O[C@@H]2O[C@H]([C@@H](C)O)[C@@H](O)[C@H](O)[C@H]2O)cc1F [Example 78] has what recorded IC50?
0.011

----------
Property: pIC50; scope: individual compounds
Measured target: human SGLT2 (Homo sapiens)
Method: Determination of SGLT2 inhibiting activity using human SGLT2 expressing cell ([14C]-α-methyl-D-glucopyranoside uptake)
Conditions used: HEK-SGLT2 cells, 1 mM [14C]-α-methyl-D-glucopyranoside, 37° C., 30 min
The read-out pIC50 is expressed as -log10 of concentration in moles per litre.

# Compound, Measurement label, Test value
measured = [
    ("C[C@@H](O)[C@H]1O[C@@H](Oc2cc(CO)cc(Cl)c2Cc2ccc(OC3CC3)cc2)[C@H](O)[C@@H](O)[C@@H]1O", "pIC50", 7.31),
    ("CCCOc1ccc(Cc2c(F)cc(CO)cc2O[C@@H]2O[C@H]([C@@H](C)O)[C@@H](O)[C@H](O)[C@H]2O)cc1", "pIC50", 7.33),
    ("CCOc1ccc(Cc2ccc(CO)cc2O[C@@H]2O[C@H]([C@@H](C)O)[C@@H](O)[C@H](O)[C@H]2O)cc1", "pIC50", 7.89),
]

Item "COc1ccc(Cc2c(Cl)cc(CO)cc2O[C@@H]2O[C@](C)(CO)[C@@H](O)[C@H](O)[C@H]2O)cc1" has what recorded pIC50?
8.00

Item "COc1ccc(Cc2ccc(N)cc2O[C@@H]2O[C@H](CO)C[C@H](O)[C@H]2O)cc1" has what recorded pIC50?
7.70

Item "C=Cc1cc(CO)cc(O[C@@H]2O[C@H]([C@@H](C)O)[C@@H](O)[C@H](O)[C@H]2O)c1Cc1ccc(OC)cc1" has what recorded pIC50?
6.87

Item "COc1ccc(Cc2c(Cl)cccc2O[C@@H]2O[C@H]([C@@H](C)O)[C@@H](O)[C@H](O)[C@H]2O)cc1" has what recorded pIC50?
7.74

Item "COc1ccc(Cc2c(Cl)cc(CO)cc2O[C@@H]2O[C@H](CO)C[C@H](O)[C@H]2O)cc1" has what recorded pIC50?
7.72

Item "Cc1cc(C)c(Cc2ccc(CCO)cc2)c(O[C@@H]2O[C@H]([C@@H](C)O)[C@@H](O)[C@H](O)[C@H]2O)c1" has what recorded pIC50?
7.40

----------
Property: IC50; scope: individual compounds
Measured target: human SGLT2 (Homo sapiens, UniProt P31639)
Method: Determination of SGLT2 inhibiting activity using human SGLT2 expressing cell ([14C]-α-methyl-D-glucopyranoside uptake)
Conditions used: HEK-SGLT2 cells, 1 mM [14C]-α-methyl-D-glucopyranoside, 37° C., 30 min
Give a bare numeral; the unit nM is implied.

Consider the worked cases shown below.
# Compound, Display unit, Test value
rows = [
    ("COc1ccc(Cc2c(Cl)cc(C)cc2O[C@@H]2O[C@H]([C@@H](C)O)[C@@H](O)[C@H](O)[C@H]2O)cc1 [Example 43]", "nM", 61),
    ("COc1ccc(Cc2c(C)cc(C)cc2O[C@@H]2O[C@H]([C@@H](C)O)[C@@H](O)[C@H](O)[C@H]2O)cc1 [Example 77]", "nM", 25),
]

Item COc1ccc(Cc2c(OC)cc(CO)cc2O[C@@H]2O[C@H]([C@@H](C)O)[C@@H](O)[C@H](O)[C@H]2O)cc1 [Example 83] has what recorded IC50?
39

Item C[C@@H](O)[C@H]1O[C@@H](Oc2cc(CO)ccc2Cc2ccc(CCCO)cc2)[C@H](O)[C@@H](O)[C@@H]1O [Example 68] has what recorded IC50?
12

----------
Measured target: human SGLT2 (Homo sapiens)
Sequence (P31639 1-672): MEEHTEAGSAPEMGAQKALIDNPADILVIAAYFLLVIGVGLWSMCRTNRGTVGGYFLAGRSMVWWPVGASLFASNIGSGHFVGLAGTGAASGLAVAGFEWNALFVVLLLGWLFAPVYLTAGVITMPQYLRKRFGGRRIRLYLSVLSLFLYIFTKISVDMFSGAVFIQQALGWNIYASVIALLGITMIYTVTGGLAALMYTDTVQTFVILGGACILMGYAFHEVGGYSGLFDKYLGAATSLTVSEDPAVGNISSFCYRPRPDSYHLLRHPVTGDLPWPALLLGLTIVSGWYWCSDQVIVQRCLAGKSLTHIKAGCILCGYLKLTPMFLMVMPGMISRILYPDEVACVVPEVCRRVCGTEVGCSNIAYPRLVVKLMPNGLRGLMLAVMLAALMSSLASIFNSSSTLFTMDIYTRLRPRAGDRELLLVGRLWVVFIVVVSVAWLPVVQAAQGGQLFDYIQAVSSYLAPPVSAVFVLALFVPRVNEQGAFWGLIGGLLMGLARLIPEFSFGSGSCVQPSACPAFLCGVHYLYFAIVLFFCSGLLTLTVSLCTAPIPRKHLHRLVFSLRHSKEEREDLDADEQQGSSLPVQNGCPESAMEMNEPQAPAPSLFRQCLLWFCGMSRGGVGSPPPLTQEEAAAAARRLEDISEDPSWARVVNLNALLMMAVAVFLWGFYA
Method: Determination of SGLT2 inhibiting activity using human SGLT2 expressing cell ([14C]-α-methyl-D-glucopyranoside uptake)
Conditions used: HEK-SGLT2 cells, 1 mM [14C]-α-methyl-D-glucopyranoside, 37° C., 30 min
Measurement label: log10 IC50 (log10 of the value in nM)
Short version: log10 scale, IC50, nM.

Consider the worked cases shown below.
# Compound, Measurement label, Test value
measured = [
    ("C[C@@H](O)[C@H]1O[C@@H](Oc2cc(CO)ccc2Cc2ccc(OC3CC3)cc2)[C@H](O)[C@@H](O)[C@@H]1O [Example 60]", "log10 IC50", 1.08),
    ("CCOc1ccc(Cc2ccc(COC(=O)CO)cc2O[C@@H]2O[C@H]([C@@H](C)O)[C@@H](O)[C@H](O)[C@H]2O)cc1 [Example 99]", "log10 IC50", 2.43),
    ("CCc1ccc(Cc2ccc(N)cc2O[C@@H]2O[C@H](C(C)O)[C@@](C)(O)[C@H](O)[C@H]2O)cc1 (stereo partly drawn) [Example 41]", "log10 IC50", 1.15),
]

Item Cc1ccc(Cc2c(F)cc(CO)cc2O[C@@H]2O[C@H]([C@@H](C)O)[C@@H](O)[C@H](O)[C@H]2O)cc1 [Example 97] has what recorded log10 IC50?
1.04

Item COc1ccc(Cc2c(Cl)cc(CO)cc2O[C@@H]2O[C@H]([C@@H](C)O)[C@@H](O)[C@H](O)[C@H]2O)cc1 [Example 44] has what recorded log10 IC50?
1.00

Item CCOc1ccc(Cc2c(Cl)cc(CO)cc2O[C@@H]2O[C@H]([C@@H](C)O)[C@@H](O)[C@H](O)[C@H]2O)cc1 [Example 45] has what recorded log10 IC50?
1.65
